system: Mus musculus; assay: Antitumor activity is evaluated as the percent increase in lifespan of TLX/5 tumor bearing animals at 25 mg/kg, daily x 5; type: functional
Catalogue of Increase readings, one per entry.

chemical structure | Increase [%]
CCN(C)/N=N/c1ccc(C(N)=O)cc1 | 84
CCCCN(C)/N=N/c1ccc(C(N)=O)cc1 | 23
CCCCCCN(C)/N=N/c1ccc(C(N)=O)cc1 | 9
CCCCCCCCN(C)/N=N/c1ccc(C(N)=O)cc1 | 4
CN(Cc1ccccc1)/N=N/c1ccc(C(N)=O)cc1 | -1
CCCN(C)/N=N/c1ccc(C(N)=O)cc1 | 113
CN(/N=N/c1ccc(C(N)=O)cc1)C(C)(C)C | -4

====

system: Mus musculus; assay: Antitumor activity is evaluated as the percent increase in lifespan of TLX/5 tumor bearing animals at 25 mg/kg, daily x 5; type: functional
Catalogue of Increase readings, one per entry.
measure: Increase (%)

chemical structure | measured on | measure | unit string | recorded result
CN(CCO)/N=N/c1ccc(C(N)=O)cc1 | Mus musculus | Increase | % | 0
CC(C)N(C)/N=N/c1ccc(C(N)=O)cc1 | Mus musculus | Increase | % | 52
CN(C)/N=N/c1ccc(C(N)=O)cc1 | Mus musculus | Increase | % | 47
CON(C)/N=N/c1ccc(C(N)=O)cc1 | Mus musculus | Increase | % | -3
CCCCCCCN(C)/N=N/c1ccc(C(N)=O)cc1 | Mus musculus | Increase | % | 6
CCCCCCCCCCCCN(C)/N=N/c1ccc(C(N)=O)cc1 | Mus musculus | Increase | % | 3
CCCCCN(C)/N=N/c1ccc(C(N)=O)cc1 | Mus musculus | Increase | % | 7

====

assay: Partition coefficient (logP); format: physicochemical; conditions: octanol/water; read-out: logP
measure: logP

compound | recorded result
CCCCCCN(C)/N=N/c1ccc(C(=O)O)cc1 | 1.95
C#CCN(C)/N=N/c1ccc(C(=O)O)cc1 | 0
CC(C)N(C)/N=N/c1ccc(C(=O)O)cc1 | 0.34
CCC(C)CN(C)/N=N/c1ccc(C(=O)O)cc1 (stereo not given) | 1.33
CCCCCN(C)/N=N/c1ccc(C(=O)O)cc1 | 1.49
CC(C)N(C)/N=N/c1ccc(C(N)=O)cc1 | 2
CCCCCCCCN(C)/N=N/c1ccc(C(=O)O)cc1 | 2.77
CCCCCCCCN(C)/N=N/c1ccc(C(N)=O)cc1 | 4.7
CCN(C)/N=N/c1ccc(C(=O)O)cc1 | 0.04
CCCN(C)/N=N/c1ccc(C(=O)O)cc1 | 0.46
C=CCN(C)/N=N/c1ccc(C(=O)O)cc1 | 0.32
CCCCCCCN(C)/N=N/c1ccc(C(=O)O)cc1 | 2.58
CCCCN(C)/N=N/c1ccc(C(N)=O)cc1 | 2.46
CCN(C)/N=N/c1ccc(C(N)=O)cc1 | 1.7
CCCCN(C)/N=N/c1ccc(C(=O)O)cc1 | 0.97

====

Catalogue of max % ILS per µmol/kg readings, one per entry.
organism: Mus musculus; assay: Compound is evaluated for maximum percentage of increase in life span (ILS) in tumor bearing mice
measure: max % ILS per µmol/kg

chemical structure | measure | recorded result
CCCCN(C)/N=N/c1ccc(C(N)=O)cc1 | max % ILS per µmol/kg | 0.426 %·kg/µmol
CN(CCO)/N=N/c1ccc(C(N)=O)cc1 | max % ILS per µmol/kg | 0.047 %·kg/µmol
CCCN(C)/N=N/c1ccc(C(N)=O)cc1 | max % ILS per µmol/kg | 0.996 %·kg/µmol
CN(C)/N=N/c1ccc(C(N)=O)cc1 | max % ILS per µmol/kg | 1.45 %·kg/µmol
CCCCCN(C)/N=N/c1ccc(C(N)=O)cc1 | max % ILS per µmol/kg | 0.392 %·kg/µmol
CCCCCCCCCCCCN(C)/N=N/c1ccc(C(N)=O)cc1 | max % ILS per µmol/kg | 0.023 %·kg/µmol
CCN(C)/N=N/c1ccc(C(N)=O)cc1 | max % ILS per µmol/kg | 0.693 %·kg/µmol
CC(C)N(C)/N=N/c1ccc(C(N)=O)cc1 | max % ILS per µmol/kg | 0.458 %·kg/µmol
CCCCCCCCN(C)/N=N/c1ccc(C(N)=O)cc1 | max % ILS per µmol/kg | 0.163 %·kg/µmol
CN(Cc1ccccc1)/N=N/c1ccc(C(N)=O)cc1 | max % ILS per µmol/kg | 0.145 %·kg/µmol
CCCCCCN(C)/N=N/c1ccc(C(N)=O)cc1 | max % ILS per µmol/kg | 0.218 %·kg/µmol
CN(O)/N=N/c1ccc(C(N)=O)cc1 | max % ILS per µmol/kg | 0.036 %·kg/µmol
CCCCCCCN(C)/N=N/c1ccc(C(N)=O)cc1 | max % ILS per µmol/kg | 0.18 %·kg/µmol

====

test system: Mus musculus; assay: Antitumor activity is evaluated as the percent increase in lifespan of TLX/5 tumor bearing animals at 50 mg/kg, daily x 5; assay type: functional
Catalogue of Increase readings, one per entry.
measure: Increase (%)

chemical structure | recorded result
CN(O)/N=N/c1ccc(C(N)=O)cc1 | 19
CON(C)/N=N/c1ccc(C(N)=O)cc1 | -5
CCCCCCN(C)/N=N/c1ccc(C(N)=O)cc1 | 11
CN(/N=N/c1ccc(C(N)=O)cc1)C(C)(C)C | -2
CN(CCO)/N=N/c1ccc(C(N)=O)cc1 | 5
CCCN(C)/N=N/c1ccc(C(N)=O)cc1 | 60
CC(C)N(C)/N=N/c1ccc(C(N)=O)cc1 | 45
CCN(C)/N=N/c1ccc(C(N)=O)cc1 | 100
CCCCN(C)/N=N/c1ccc(C(N)=O)cc1 | 91
CCCCCCCN(C)/N=N/c1ccc(C(N)=O)cc1 | 15
CN(Cc1ccccc1)/N=N/c1ccc(C(N)=O)cc1 | 3
CCCCCN(C)/N=N/c1ccc(C(N)=O)cc1 | 79
CCCCCCCCN(C)/N=N/c1ccc(C(N)=O)cc1 | 4
CCCCCCCCCCCCN(C)/N=N/c1ccc(C(N)=O)cc1 | 3
CN(C)/N=N/c1ccc(C(N)=O)cc1 | 65
